- Test system: OVCAR-5 ovarian
- protocol_notes: NCI tumour cell line growth inhibition, 48 h
quantity_kind: TGI

Request: I'm curious: which TGI was measured for `CC(=O)/C=C\C(=O)NNS(=O)(=O)c1ccc(C)cc1` tested on OVCAR-5 ovarian?
Response: > 100 µM

Request: I'm curious: which TGI was measured for COCC(O)CN1C(N)=NC(O)C1O (stereo not given) tested on OVCAR-5 ovarian?
Response: > 100 µM

Request: I'm curious: which TGI was measured for `COc1c(-c2ccc3c(c2)OCO3)oc2cc3c(c(OC)c2c1=O)OCO3` tested on OVCAR-5 ovarian?
Response: > 100 µM

Request: I'm curious: which TGI was measured for `COC(=O)c1cc2c([nH]c3ccccc32)c(-c2nc3cc(N(S(=O)(=O)c4ccc(C)cc4)S(=O)(=O)c4ccc(C)cc4)c(OC)cc3cc2CO)n1` tested on OVCAR-5 ovarian?
Response: > 100 µM

Request: I'm curious: which TGI was measured for COC(=O)C1CCC2(CC1)NC(=O)NC2=O (stereo not given) tested on OVCAR-5 ovarian?
Response: > 100 µM

Request: I'm curious: which TGI was measured for `CCCCCCCCCCCCCCCCCc1nc(C#N)c(N)o1` tested on OVCAR-5 ovarian?
Response: > 100 µM

Request: I'm curious: which TGI was measured for `COc1ccc(C(=O)CC(Cl)=C(Cl)Cl)cc1` tested on OVCAR-5 ovarian?
Response: 50.4 µM

Request: I'm curious: which TGI was measured for `Cn1cc(C2=C(c3cn(CCCSC(=N)N)c4ccccc34)C(=O)NC2=O)c2ccccc21` tested on OVCAR-5 ovarian?
Response: 18.6 µM

Request: I'm curious: which TGI was measured for O=C1OC2C(O)COC2(OCc2c[nH]c3ccccc23)C1O (stereo not given) (tested in a mixture with another compound) tested on OVCAR-5 ovarian?
Response: > 100 µM

Request: I'm curious: which TGI was measured for `Nc1cc2[nH]c(=O)c3cc(Cl)ccc3c2cc1Cl` tested on OVCAR-5 ovarian?
Response: > 100 µM

Request: I'm curious: which TGI was measured for COc1cc(C2c3cc4c(c(O)c3C(=O)C3CCC(=O)N32)OCO4)cc(OC)c1OC (stereo not given) tested on OVCAR-5 ovarian?
Response: > 100 µM

Request: I'm curious: which TGI was measured for C[N+](C)(C)CC(=O)N/N=C(\C(=O)Nc1ccc(Cl)cc1)C1C(=O)N(c2ccccc2)N=C1N (stereo not given) tested on OVCAR-5 ovarian?
Response: > 100 µM

Request: I'm curious: which TGI was measured for `C[C@H]1C(=O)C2=C[C@H]1CCC(=O)[C@]1(C)CCCC(C)(C)[C@H]1C[C@H]2O` tested on OVCAR-5 ovarian?
Response: > 100 µM

Request: I'm curious: which TGI was measured for CC(C)Oc1c(O)c2c3c(oc(=O)n3C=CC2c2ccccc2F)c1OC(C)C (stereo not given) tested on OVCAR-5 ovarian?
Response: 42.9 µM

Request: I'm curious: which TGI was measured for `CN(C)CCCN1c2ccc3ccccc3c2Sc2cccc(Cl)c21` tested on OVCAR-5 ovarian?
Response: 17.7 µM

Request: I'm curious: which TGI was measured for O=c1c2ccccc2nc(-c2ccccc2Cl)n1NC1OC(CO)C(O)C(O)C1O (stereo not given) tested on OVCAR-5 ovarian?
Response: > 100 µM

Request: I'm curious: which TGI was measured for CCCC1C2=C(C(=O)OC2=O)C2C(CC)CC3=C(C(=O)OC3=O)C12 (stereo not given) tested on OVCAR-5 ovarian?
Response: > 100 µM

Request: I'm curious: which TGI was measured for `CCN1CCc2sc3[nH]c(=S)n(C)c(=O)c3c2C1` tested on OVCAR-5 ovarian?
Response: > 100 µM

Request: I'm curious: which TGI was measured for `Oc1ccc(-c2nc(-c3ccc4oc5ccc(-c6[nH]c(-c7ccc(O)cc7)nc6-c6ccccc6)cc5c4c3)c(-c3ccccc3)[nH]2)cc1` tested on OVCAR-5 ovarian?
Response: 25.4 µM

Request: I'm curious: which TGI was measured for `COc1ccc(-c2nccn2-c2cc(OC)c(OC)c(OC)c2)cc1` tested on OVCAR-5 ovarian?
Response: > 79.4 µM
